The compounds below have reported pIC50 for Aldo-keto reductase family 1 member A1 (Rattus norvegicus).
Expect pIC50 as a plain number equal to -log10 of the molar concentration.

The value of pIC50 recorded for `O=C(Cn1c(=O)c(/C=C/c2ccc(O)c(O)c2)nc2ccccc21)NS(=O)(=O)C(F)(F)F` when tested on Aldo-keto reductase family 1 member A1 (Rattus norvegicus) reads 5.04

The value of pIC50 recorded for `O=C(Cn1c(=O)c(/C=C/c2ccc(O)cc2)nc2ccccc21)NS(=O)(=O)C(F)(F)F` when tested on Aldo-keto reductase family 1 member A1 (Rattus norvegicus) reads 4.56

More entries:
The value of pIC50 recorded for `COc1cc(/C=C/c2nc3ccccc3n(CC(=O)NS(=O)(=O)C(F)(F)F)c2=O)ccc1O` when tested on Aldo-keto reductase family 1 member A1 (Rattus norvegicus) reads 4.62

The value of pIC50 recorded for `O=C(Cn1c(=O)c(-c2ccc(O)c(O)c2)nc2ccccc21)NS(=O)(=O)C(F)(F)F` when tested on Aldo-keto reductase family 1 member A1 (Rattus norvegicus) reads 4.24

The value of pIC50 recorded for `O=C(Cn1c(=O)c(/C=C/c2ccc(F)cc2)nc2ccccc21)NS(=O)(=O)C(F)(F)F` when tested on Aldo-keto reductase family 1 member A1 (Rattus norvegicus) reads 4.53

The value of pIC50 recorded for `O=C(Cn1c(=O)c(/C=C/c2ccccc2)nc2ccccc21)NS(=O)(=O)C(F)(F)F` when tested on Aldo-keto reductase family 1 member A1 (Rattus norvegicus) reads 4.52

====

# TARGET: UniProt P07943
Output 1 (yes) for records whose IC50 is lower than 20 µM, 0 (no) for records at or above 20 µM.

Quick check: IC50 of `O=C(Cn1c(=O)c(-c2ccccc2)nc2ccccc21)NS(=O)(=O)C(F)(F)F` under 20 µM?
0 (no)

Quick check: IC50 of `O=C(Cn1c(=O)c(-c2ccc(O)cc2)nc2ccccc21)NS(=O)(=O)C(F)(F)F` under 20 µM?
0 (no)

Quick check: IC50 of `O=C(Cn1c(=O)c(Oc2ccc(F)cc2)nc2ccccc21)NS(=O)(=O)C(F)(F)F` under 20 µM?
0 (no)

More entries:
Quick check: IC50 of `O=C(Cn1c(=O)c(Oc2ccc(Cl)cc2)nc2ccccc21)NS(=O)(=O)C(F)(F)F` under 20 µM?
0 (no)

Quick check: IC50 of `O=C(Cn1c(=O)c(-c2ccc(C(F)(F)F)cc2)nc2ccccc21)NS(=O)(=O)C(F)(F)F` under 20 µM?
0 (no)

Quick check: IC50 of `CS(=O)(=O)NC(=O)Cn1c(=O)c(/C=C/c2ccccc2)nc2ccccc21` under 20 µM?
0 (no)

Quick check: IC50 of `O=C(Cn1c(=O)c(/C=C/c2ccc(O)c(O)c2)nc2ccccc21)NS(=O)(=O)C(F)(F)F` under 20 µM?
1 (yes)

Quick check: IC50 of `O=C(Cn1c(=O)c(/C=C/c2ccccc2)nc2ccccc21)NS(=O)(=O)C(F)(F)F` under 20 µM?
1 (yes)

====

# Species on record: Rattus norvegicus
# TEST_SUMMARY: Selectivity index, ratio of IC50 for Wistar rat kidney ALR1 to IC50 for Wistar rat lens ALR2
Reported Ratio IC50 values for a set of compounds

// sample `O=C(Cn1c(=O)c(/C=C/c2ccc(O)cc2)nc2ccccc21)NS(=O)(=O)C(F)(F)F` , its Ratio IC50 was 44.2

// sample `O=C(Cn1c(=O)c(Oc2ccc(O)cc2)nc2ccccc21)NS(=O)(=O)C(F)(F)F` , its Ratio IC50 was 7.26

// sample `O=C(Cn1c(=O)c(-c2ccc(O)c(O)c2)nc2ccccc21)NS(=O)(=O)C(F)(F)F` , its Ratio IC50 was 12.5

// sample `O=C(Cn1c(=O)c(/C=C/c2ccccc2)nc2ccccc21)NS(=O)(=O)C(F)(F)F` , its Ratio IC50 was 4.68

Next compound, please.
// sample `COc1cc(/C=C/c2nc3ccccc3n(CC(=O)NS(=O)(=O)C(F)(F)F)c2=O)ccc1O` , its Ratio IC50 was 7.3
